Measured IC50, listed per entry for reference.
tested on: WiDr human colon cancer cells; test: Action of inhibiting proliferation of WiDr human colon cancer cells (MTT); type: cell-based; settings: 72 h, three days culture, read-out: WiDr human colon cancer cell proliferation inhibitory activity (IC50: nM)

Compound | Measurement Unit | IC50
CCC(OC(=O)Nc1ccccc1)C(C)C1OC1CC(C)/C=C/C=C(\C)C1OC(=O)CC(O)CCC(C)(O)C(OC(=O)N2CCN(C)CC2)/C=C/C1C (stereo not drawn) [Example 3] | nM | 4.8
CCC(OC(=O)c1ccccc1)C(C)C1OC1CC(C)/C=C/C=C(\C)C1OC(=O)CC(O)CCC(C)(O)C(OC(=O)N2CCN(C)CC2)/C=C/C1C (stereo not drawn) [Example 1] | nM | 5.9
CCC(OC(=O)N(C)C)C(C)C1OC1CC(C)/C=C/C=C(\C)C1OC(=O)CC(O)CCC(C)(O)C(OC(=O)N2CCN(C)CC2)/C=C/C1C (stereo not drawn) [Example 2] | nM | 2.4
